Data provenance is patent US20100069436A1.

Target: p38α MAP kinase (Homo sapiens)
Sequence (Q16539 whole entry): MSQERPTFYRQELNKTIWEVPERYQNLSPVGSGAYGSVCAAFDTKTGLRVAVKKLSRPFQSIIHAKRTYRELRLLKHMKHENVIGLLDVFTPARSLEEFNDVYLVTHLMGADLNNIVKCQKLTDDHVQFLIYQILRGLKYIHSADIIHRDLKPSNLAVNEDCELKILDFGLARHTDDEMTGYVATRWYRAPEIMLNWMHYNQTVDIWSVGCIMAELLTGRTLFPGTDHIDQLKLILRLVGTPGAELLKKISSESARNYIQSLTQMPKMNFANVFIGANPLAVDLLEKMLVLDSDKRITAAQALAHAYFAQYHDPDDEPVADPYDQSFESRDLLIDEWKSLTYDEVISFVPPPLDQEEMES
Test: Assay to determine the inhibition of p38α MAP kinase (phosphorylation of ATF-2, IC50-values)
Settings: ATF-2 coated microtiter plates, 10 ng activated p38α, 100 μM ATP, 1 h at 37° C.; read-out: IC50, inhibition of the phosphorylation of ATF-2 by p38a MAP kinase
VALUE KIND: IC50

| COMPOUND | IC50 |
| --- | --- |
| COCCn1c([S+](C)[O-])nc(-c2ccc(F)cc2)c1-c1ccnc(NC2CC(C)(C)NC(C)(C)C2)c1 (stereo not shown) | > 10000 nM |
| COCCn1c(SC)nc(-c2ccc(F)cc2)c1-c1ccnc(NC2CCCCC2O)c1 (stereo not shown) [Example 35 (2)] | < 1000 nM |
| COCCn1c(SC)nc(-c2ccc(F)cc2)c1-c1ccnc(NC2CC(C)(C)NC(C)(C)C2)c1 | < 1000 nM |

Item COCCn1c([S+](C)[O-])nc(-c2ccc(F)cc2)c1-c1ccnc(NC2CCC(O)CC2)c1 (stereo not shown) : provide IC50
< 1000 nM

Item COCCn1c(SC)nc(-c2ccc(F)cc2)c1-c1ccnc(NC2CCN(Cc3ccccc3)CC2)c1 : provide IC50
1000 to 10000 nM

Item CSc1nc(-c2ccc(F)cc2)c(-c2ccnc(NC3CCC(O)CC3)c2)n1C (stereo not shown) : provide IC50
< 1000 nM

Item CCN1CCCC1CNc1cc(-c2c(-c3ccc(F)cc3)nc(SC)n2C)ccn1 (stereo not shown) : provide IC50
> 10000 nM

Item COCCn1c(SC)nc(-c2ccc(F)cc2)c1-c1ccnc(NCC(C)=O)c1 : provide IC50
1000 to 10000 nM

Item CSc1nc(-c2ccc(F)cc2)c(-c2ccnc(NC3CC(C)(C)NC(C)(C)C3)c2)n1C : provide IC50
1000 to 10000 nM

Item Cn1c([S+](C)[O-])nc(-c2ccc(F)cc2)c1-c1ccnc(NC2CCN(Cc3ccccc3)CC2)c1 (stereo not shown) : provide IC50
> 10000 nM

Item COCCn1c([S+](C)[O-])nc(-c2ccc(F)cc2)c1-c1ccnc(NC2CCN(Cc3ccccc3)CC2)c1 (stereo not shown) : provide IC50
1000 to 10000 nM

Item CCN1CCCC1CNc1cc(-c2c(-c3ccc(F)cc3)nc(SC)n2CCOC)ccn1 (stereo not shown) : provide IC50
< 1000 nM

Item Cn1c([S+](C)[O-])nc(-c2ccc(F)cc2)c1-c1ccnc(NC2CC(C)(C)NC(C)(C)C2)c1 (stereo not shown) : provide IC50
> 10000 nM

Item CC(O)CNc1cc(-c2c(-c3ccc(F)cc3)nc([S+](C)[O-])n2C)ccn1 (stereo not shown) : provide IC50
> 10000 nM

Item CSc1nc(-c2ccc(F)cc2)c(-c2ccnc(NC3CCCCC3O)c2)n1C (stereo not shown) [Example 18] : provide IC50
< 1000 nM

Item COCCn1c(SC)nc(-c2ccc(F)cc2)c1-c1ccnc(NCC(C)O)c1 (stereo not shown) : provide IC50
< 1000 nM
